I'd be grateful if you could share measured melting point for these entries.

Examples from the recorded data:
1) Cc1cc(CCCCCCCc2ccc(C3=NCCO3)cc2)on1 | 66 to 67 °C
2) C#Cc1cn(C2CC(OC(C)=O)C(COC(C)=O)O2)c(=O)[nH]c1=O (stereo not given) | 152 to 154 °C
3) [O-][N+]1=C(c2ccccc2F)c2cc(Cl)ccc2-n2cnc(N3CCOCC3)c2C1 | 200 to 203 °C
4) CC1=NN(C)C(=O)C1=Cc1ccc(Cl)cc1Cl | 128 °C

Parameters: items (list). Returns: melting point for each item.
1. CCN1C(=O)CCC(C)(C)c2ccc(Nc3ncc(Cl)c(Nc4c(F)cccc4OCC#N)n3)cc21
2. CC(=O)c1ccc2oc3ccc(C(C)=O)cc3c(=O)c2c1
3. CC(=O)Nc1ccc(-c2ccc(C(O)CCC(=O)O)cc2)cc1Br (stereo not given)
4. CCOC(=O)c1cc(F)c2c(c1Cl)C(OCCF)CCS2(=O)=O (stereo not given)
5. CCCCn1nc2c(N)nc3ccccc3c2c1CC(C)(C)C
6. COc1cc(OC)c(C2=NC(NC(=O)Nc3cccc(C)c3)C(=O)N(C)c3ccccc32)c(OC)c1 (stereo not given)

Response:
1. 235 to 238 °C
2. 226 to 228 °C
3. 125 to 126 °C
4. 87 to 89 °C
5. 163 to 164 °C
6. 240 °C
